Values from patent US20110287023A1

Target: T1, recombinant HMG1 produced in E. coli as a calmodulin binding protein (CBP) fusion (human)
T1 construct: also called rHMG1; rHMGB1
T1 sequence (P09429 whole entry, the tested form may be a part): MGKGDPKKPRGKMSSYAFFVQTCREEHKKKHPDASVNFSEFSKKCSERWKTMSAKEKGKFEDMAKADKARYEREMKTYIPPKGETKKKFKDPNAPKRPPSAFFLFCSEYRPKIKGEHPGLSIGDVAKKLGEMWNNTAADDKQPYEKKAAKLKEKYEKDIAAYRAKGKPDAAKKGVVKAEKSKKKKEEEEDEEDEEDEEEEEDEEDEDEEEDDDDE
Assay: BIAcore 3000, mAb amine-coupled to CM5, HMG1 injected, steady-state model
OBSERVED_PROPERTY: pKd
Answers are plain numbers, as −log10 of the molar value.

BINDER	pKd
human anti-HMG1 antibody G9 (antibody, IgG1, V domains shown, full length IgG1 made from a human Fab phage clone) VH: EVQLLESGGGLVQPGGSLRLSCAASGFTFSSYDMFWVRQAPGKGLEWVSRISPSGGYTYYADSVKGRFTISRDNSKNTLYLQMNSLRAEDTAVYYCARLRYFDSRGYAFDIWGQGTMVTVSS VL: DIQMTQSPGTLSLSPGERATLSCRASQSVRSSYLAWYQQKPGQAPRLLIYGASTRATGIPDRFSGSGSGTDFTLTISRLEPEDFAVYYCQQYGTSRWTFGQGTKVEIK	6.90

Lab note: next binder to report on.
[Q] Tell me pKd reported for human anti-HMG1 antibody S17 (antibody, IgG1, V domains shown, full length IgG1 made from a human Fab phage clone) VH: EVQLLESGGGLVQPGGSLRLSCAASGFTFSYYDMHWVRQAPGKGLEWVSRISPSGGYTWYADSVKGRFTISRDNSKNTLYLQMNSLRAEDTAVYYCTRGRYTSGWHEYFDPWGQGTLVTVSS VL: DIQMTQSPSSLSASVGDRVTITCRASQSIGTYLNWYQQKPGTAPKVLIYAASSLQSGVPSRFSGSGSGTDFTLTISSLQPEDFSTYYCQQSYNTPRTFGQGTKLEIK
[A] 6.48
